pIC50: −log10 of the molar value.
What follows is a collection of pIC50 values obtained with Coagulation factor X (Homo sapiens).
Sequence (P00742 41-179 limits assumed): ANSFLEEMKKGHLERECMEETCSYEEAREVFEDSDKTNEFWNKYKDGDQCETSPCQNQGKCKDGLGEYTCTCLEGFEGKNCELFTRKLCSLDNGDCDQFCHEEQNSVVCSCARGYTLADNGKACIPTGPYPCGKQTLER
Sequence (P00742 235-488 limits assumed): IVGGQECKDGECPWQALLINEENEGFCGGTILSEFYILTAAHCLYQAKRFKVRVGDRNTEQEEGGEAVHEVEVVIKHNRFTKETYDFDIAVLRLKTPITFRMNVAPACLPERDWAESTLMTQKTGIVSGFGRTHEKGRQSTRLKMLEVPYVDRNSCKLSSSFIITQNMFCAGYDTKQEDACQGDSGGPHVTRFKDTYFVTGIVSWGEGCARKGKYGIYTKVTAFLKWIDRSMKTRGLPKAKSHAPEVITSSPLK
measured.endpoint: pIC50

chemical_string=COc1ccc2c(c1)C(=O)N(c1ccc(-n3ccccc3=O)cc1)CN2C(=O)Cc1ccc(Cl)cc1 experimental_target="Coagulation factor X (Homo sapiens)" readout_number=6.78
chemical_string=COc1ccc2c(c1)C(=O)N(c1ccc(N3CCOCC3=O)cc1)CN2C(=O)Cc1ccc(Cl)cc1 experimental_target="Coagulation factor X (Homo sapiens)" readout_number=7.38
chemical_string=COc1ccc2c(c1)C(=O)N(c1ccc(N3CCCCC3=O)cc1)CN2C(=O)Cc1cccc(Cl)c1 experimental_target="Coagulation factor X (Homo sapiens)" readout_number=6.27
chemical_string=COc1ccc2c(c1)C(=O)N(c1ccc(N3CCOCC3=O)cc1)CN2C(=O)c1ccc(CCl)cc1 experimental_target="Coagulation factor X (Homo sapiens)" readout_number=5.85
chemical_string=COc1ccc2c(c1)C(=O)N(c1ccc(N3CCCCC3=O)cc1)CN2C(=O)c1ccc(Cl)cc1 experimental_target="Coagulation factor X (Homo sapiens)" readout_number=4.28

A. COc1ccc2c(c1)C(=O)N(c1ccc(N3CCCCC3=O)cc1)CN2C(=O)Cc1ccccc1Cl
B. COc1ccc2c(c1)C(=O)N(c1ccc(N3CCOCC3=O)cc1)CN2C(=O)Cc1ccc(Cl)cc1Cl
Pick one, A or B : lowest reported pIC50. Indicate which entry you chose by stating its label.
A
(A: 5.87, B: 6.30)
